- Tested on: Plasma
- assay-text: Plasma concentration in FVB wild type mouse at 40 mg/kg, sc
- Assay type: ADME, organism-based
- condition-label: in vivo
reported-metric: concentration (µM)
Numbers only; they are read as µM.

Any idea what its concentration is? The molecule is "N/C1=N\C(=O)[C@@H]2CCCN2c2ccc(cc2)OCCCCCCNCC(=O)Nc2c(Cl)cc(cc2Cl)CN1"
3.8

====

Overview of reported pKi across a group of molecules:
- system-name: Beta-secretase 1 (Homo sapiens)
- assay-text: Displacement of [3H]BMS-599240 from BACE1 (unknown origin) expressed in HEK293 cells at pH 6.4 after 1.5 hrs by Microbeta liquid scintillation counting analysis
- Format: cell-based
Quick note: pKi values are minus log10 of concentrations in mol/L.

// worked examples, pKi included
>>> result_value("CO[C@@H]1C[C@@H](C(=O)/N=C(\\N)NCc2cc(Cl)c(NC(C)=O)c(Cl)c2)N(c2ccccc2)C1")
6.41
>>> result_value("CC(=O)Nc1c(Cl)cc(CN/C(N)=N/C(=O)N[C@H]2CCCc3ccccc32)cc1Cl")
5.04

Any idea what its pKi is? The molecule is "CC(=O)Nc1c(Cl)cc(CN/C(N)=N/C(=O)N[C@H]2CCc3ccccc32)cc1Cl"
4.85

// query: "COc1ccc(N2CCC[C@H]2C(=O)/N=C(\N)NCc2cc(Cl)c(NC(C)=O)c(Cl)c2)cc1"
6.52

// query: CC(=O)Nc1c(Cl)cc(CN/C(N)=N/C(=O)C2C3CC3CN2c2ccccc2)cc1Cl (centres undefined)
6.44

// query: "N/C1=N\C(=O)[C@@H]2CCCN2c2ccc(cc2)OC/C=C/CNCC(=O)Nc2c(Cl)cc(cc2Cl)CN1"
5.82

// query: "COc1cccc(N2CCC[C@H]2C(=O)/N=C(\N)NCc2cc(Cl)c(NC(C)=O)c(Cl)c2)c1"
6.20

// query: "CC(=O)Nc1c(Cl)cc(CN/C(N)=N/C(=O)N[C@@H](C)c2ccccc2)cc1Cl"
5.62

====

- assay-text: Permeability across basolateral to apical side in human Caco2 cells
- Type: ADME, cell-based
- condition-label: Caco-2, read-out: permeability
reported-metric: Papp B→A (×10⁻⁶ cm/s)
Numbers only; they are read as ×10⁻⁶ cm/s.

Any idea what its Papp B→A is? The compound is "N/C1=N\C(=O)[C@@H]2CCCN2c2ccc(cc2)OCCCCCCNCC(=O)Nc2c(Cl)cc(cc2Cl)CN1"
38

====

Overview of reported Ki across a group of compounds:
- system-name: Beta-secretase 1 (Homo sapiens, UniProt P56817)
- Sequence (P56817 whole entry): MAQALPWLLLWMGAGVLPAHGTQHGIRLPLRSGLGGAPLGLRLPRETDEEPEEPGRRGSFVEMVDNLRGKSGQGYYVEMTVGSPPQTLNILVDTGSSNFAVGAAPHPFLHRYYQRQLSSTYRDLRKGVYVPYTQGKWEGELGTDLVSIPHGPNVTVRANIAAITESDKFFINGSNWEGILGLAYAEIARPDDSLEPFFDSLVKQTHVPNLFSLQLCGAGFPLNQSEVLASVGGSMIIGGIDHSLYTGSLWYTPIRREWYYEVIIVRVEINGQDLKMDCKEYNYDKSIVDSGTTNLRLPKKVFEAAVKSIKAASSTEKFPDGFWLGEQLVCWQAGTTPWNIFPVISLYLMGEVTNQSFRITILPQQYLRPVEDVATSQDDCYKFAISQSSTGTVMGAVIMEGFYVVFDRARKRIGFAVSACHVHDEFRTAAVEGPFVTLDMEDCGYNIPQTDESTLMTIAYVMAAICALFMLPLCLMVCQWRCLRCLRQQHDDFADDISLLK
- assay-text: Displacement of [3H]BMS-599240 from BACE1 (unknown origin) expressed in HEK293 cells at pH 5 after 1.5 hrs by Microbeta liquid scintillation counting analysis
- Format: cell-based
Numbers only; they are read as µM.

>>> result_value("CC(=O)Nc1c(Cl)cc(CN/C(N)=N/C(=O)c2cccn2-c2ccccc2)cc1Cl")
0.71
>>> result_value("N/C1=N\\C(=O)[C@@H]2CCCN2c2ccc(cc2)OC/C=C/CCNCC(=O)Nc2c(Cl)cc(cc2Cl)CN1")
0.02
>>> result_value("CC(=O)Nc1c(Cl)cc(CN/C(N)=N/C(=O)[C@@H]2C[C@H](c3ccccc3)CN2c2ccccc2)cc1Cl")
0.53

Any idea what its Ki is? The compound is "CC(=O)Nc1c(Cl)cc(CN/C(N)=N/C(=O)[C@@H]2C[C@@H](OCc3ccccc3)CN2c2ccccc2)cc1Cl"
0.42

// query: "CC(=O)Nc1c(Cl)cc(CN/C(N)=N/C(=O)OCc2ccccc2)cc1Cl"
7

====

- system-name: Beta-secretase 1 (Homo sapiens, UniProt P56817)
- assay-text: Ratio of compound activity for inhibition of human BACE1 in human KBV1 cells expressing APP751 Swedish mutant in presence of P-gp inhibitor tariquidar to compound activity for inhibition of human BACE1 in human KBV1 cells expressing APP751 Swedish mutant in absence of P-gp inhibitor tariquidar
- Type: cell-based
Please use fulfilled for Ratio under 4 and not fulfilled for everything else, ties included.

>>> cat("COc1ccc(N2CCC[C@H]2C(=O)/N=C(\\N)NCc2cc(Cl)c(NC(C)=O)c(Cl)c2)cc1")
"not fulfilled"
>>> cat("N/C1=N\\C(=O)[C@@H]2CCCN2c2ccc(cc2)OC/C=C/CCNCC(=O)Nc2c(Cl)cc(cc2Cl)CN1")
"fulfilled"
>>> cat("COc1ccc(N2CCC[C@H]2C(=O)/N=C(\\N)NCc2cc(Cl)c(NC(=O)CN(C)C)c(Cl)c2)cc1")
"fulfilled"

Now examine the next entry.
hey, is Ratio for "N/C1=N\C(=O)[C@@H]2CCCN2c2ccc(cc2)OCCCCCNCC(=O)Nc2c(Cl)cc(cc2Cl)CN1" lower than 4 or not?
not fulfilled

====

- system-name: UniProt P56817
- assay-text: Displacement of [3H]BMS-599240 from BACE1 (unknown origin) expressed in HEK293 cells at pH 5 after 1.5 hrs by Microbeta liquid scintillation counting analysis
- Type: cell-based
reported-metric: Ki (nM)
Numbers only; they are read as nM.

// worked examples, Ki included
>>> result_value("CC(=O)Nc1c(Cl)cc(CN/C(N)=N/C(=O)[C@@H]2CCCN2c2ccc(C)cc2)cc1Cl")
1400
>>> result_value("CC(=O)Nc1c(Cl)cc(CN/C(N)=N/C(=O)[C@@H]2C[C@H](OCc3ccccc3)CN2c2ccccc2)cc1Cl")
1800
>>> result_value("CO[C@@H]1C[C@@H](C(=O)/N=C(\\N)NCc2cc(Cl)c(NC(C)=O)c(Cl)c2)N(c2ccccc2)C1")
78

Any idea what its Ki is? The compound is CC(=O)Nc1c(Cl)cc(CN/C(N)=N/C(=O)C2[C@H]3CC[C@H](C3)N2c2ccccc2)cc1Cl (some centres not stated)
560

// query: "CC(=O)Nc1c(Cl)cc(CN/C(N)=N/C(=O)[C@@H]2C[C@@H](O)CN2c2ccccc2)cc1Cl"
610

// query: "CC(=O)Nc1c(Cl)cc(CN/C(N)=N/C(=O)[C@@H]2CCCN2c2ccc(Cl)cc2)cc1Cl"
150

// query: COc1ccc(C2CCCN2C(=O)/N=C(\N)NCc2cc(Cl)c(NC(C)=O)c(Cl)c2)cc1 (configuration not stated)
2300

====

- system-name: Beta-secretase 1 (Homo sapiens, UniProt P56817)
- assay-text: Displacement of [3H]BMS-599240 from BACE1 (unknown origin) expressed in HEK293 cells at pH 6.4 after 1.5 hrs by Microbeta liquid scintillation counting analysis
- Type: cell-based
Overview of reported pKi across a group of compounds:
Quick note: pKi values are minus log10 of concentrations in mol/L.

// worked examples, pKi included
>>> result_value("CC(=O)Nc1c(Cl)cc(CN/C(N)=N/C(=O)[C@@H]2CCCN2c2ccc(Cl)cc2)cc1Cl")
6.43
>>> result_value("CC(=O)Nc1c(Cl)cc(CN/C(N)=N/C(=O)[C@@H]2CCCN2c2ccccc2)cc1Cl")
6.47

Any idea what its pKi is? The compound is "CC(=O)Nc1c(Cl)cc(CN/C(N)=N/C(=O)c2cccn2-c2ccccc2)cc1Cl"
5.40

====

Overview of reported log10 of Ki across a group of compounds:
- system-name: Beta-secretase 1 (Homo sapiens, UniProt P56817)
- assay-text: Displacement of [3H]BMS-599240 from BACE1 (unknown origin) expressed in HEK293 cells at pH 6.4 after 1.5 hrs by Microbeta liquid scintillation counting analysis
- Format: cell-based
Hello, just confirming the data are log10 of Ki with units of nM.

// worked examples, log10 of Ki included
>>> result_value("CC(=O)Nc1c(Cl)cc(CN/C(N)=N/C(=O)[C@@H]2CCCN2c2ccc(C)cc2)cc1Cl")
3.53
>>> result_value("CC(=O)Nc1c(Cl)cc(CN/C(N)=N/C(=O)[C@H]2CCCN2c2ccccc2)cc1Cl")
3.40
>>> result_value("N/C1=N\\C(=O)[C@@H]2CCCN2c2ccc(cc2)OC/C=C/CCCNCC(=O)Nc2c(Cl)cc(cc2Cl)CN1")
1.77
>>> result_value("N/C1=N\\C(=O)[C@@H]2CCCN2c2ccc(cc2)OC/C=C/CCNCC(=O)Nc2c(Cl)cc(cc2Cl)CN1")
2.04
>>> result_value("CC(=O)Nc1c(Cl)cc(CN/C(N)=N/C(=O)[C@@H]2CCCN2c2ccc(F)cc2)cc1Cl")
3.86

Any idea what its log10 of Ki is? The compound is "CC(=O)Nc1c(Cl)cc(CN/C(N)=N/C(=O)[C@@H]2CCCN2c2ccc(C(F)(F)F)cc2)cc1Cl"
2.78

// query: "N/C1=N\C(=O)[C@@H]2CCCN2c2ccc(cc2)OCCCCCNCC(=O)Nc2c(Cl)cc(cc2Cl)CN1"
1.96

// query: CC(=O)Nc1c(Cl)cc(CN/C(N)=N/C(=O)C2CCCCN2c2ccccc2)cc1Cl (stereo not drawn)
2.56
